Taken from the supplement of paper PMC12042874.

- experiment: amyloid nucleation score (Sup35N fusion, yeast selection) (log enrichment); library NNK1; higher = more nucleation; inactive = no reads after selection;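 note: zero at mode of non-aggregating sequences after 7 days selection at 30°C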
Label not met if amyloid nucleation score falls below 0.4; label met in every other case.

Solved entries:
{"columns": ["substance", "assigned category"],
 "data": [
  ["WFGYNIGPK", "met"],
  ["CDWYDQMREVGESYVALSYN", "not met"],
  ["FNGRVRGYHSLDNVVHGRLY", "met"],
  ["SIAFYFFKPLYVLVPNMFGY", "met"]
]}

Data request: # check: amyloid nucleation score of `ASRILV` is greater than or equal to 0.4
Data returned: not met

====

- experiment: amyloid nucleation score (Sup35N fusion, yeast selection) (log enrichment); library NNK2; higher = more nucleation; inactive = no reads after selection
property: amyloid nucleation score

Here is how some substances turned out for amyloid nucleation score.
{"columns": ["substance", "amyloid nucleation score"],
 "data": [
  ["QRADQWVSRKLRPSIARL", 1.52],
  ["VNNGSMFSRGDWCVVLYPTW", 3.45],
  ["GAVNFYHT", 4.06],
  ["LCRYARCLIVSFVRIFGCCL", -0.47],
  ["IFIVYILCFFMREIFAPI", 3.77],
  ["QGAVLTL", -1.12]
]}

Data request: For the substance `EVDLRKSGLSGRVKFYLMLW` , what amyloid nucleation score is on record?
Data returned: 0.839

Data request: For the substance `GCLMVGINGCPIGPM` , what amyloid nucleation score is on record?
Data returned: -1.11

Data request: For the substance `VSYDVNIFWYPKKMS` , what amyloid nucleation score is on record?
Data returned: inactive

Data request: For the substance `SSFFVAPGSSLLLIRLLCSS` , what amyloid nucleation score is on record?
Data returned: inactive

Data request: For the substance `FLYQEPSSCVTTAKISGLMA` , what amyloid nucleation score is on record?
Data returned: inactive

Data request: For the substance `LDIPNGNYVLMSYR` , what amyloid nucleation score is on record?
Data returned: 0.32
